assay: Cytotoxicity against mouse NIH/3T3 cells assessed as cell survival at 50 uM incubated for 5 days by crystal violet staining based assay; set-up: species or system NIH3T3; conditions: read-out: Survival
property-name: viability at 120 h, 50 µM
Respond with a number, then the unit of measure.

### Prompt Quick one: viability at 120 h, 50 µM of CC(C)CC(=O)C1C(=O)c2ccccc2C1=O ?
### Response 40%
